These measurements were taken from the supplement of paper PMC9233669.

Field: self-aminoacylation. Provide a value for each of the sequences that follow.
System: biotinyl-Ile-oxazolone
Assay: self-aminoacylation, catalytic enhancement (BIO) (fold over background); higher = more active; k-Seq, kA / k0A0; sequences stand for … in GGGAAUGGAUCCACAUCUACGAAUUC…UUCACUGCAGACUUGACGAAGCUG
Fewer inactive variants are shown than the library holds.
Note: the reply should be a number with no unit written.

Query: Would you kindly share the measured self-aminoacylation for AUUACCCUGGGCAACGAGUGA [Fam2.1 aminoacylation ribozyme variant] ?
Response: 3.81

Query: What do you have for AUUCACCCAGGUCAUCGGGUC [Fam2.2 aminoacylation ribozyme variant] ?
Response: 1.14

Query: What do you have for AUUCUCCUAGGUCAUCGGGUG [Fam2.2 aminoacylation ribozyme variant] ?
Response: 8.11

Query: What do you have for AAGCUUGCUAAUAGGCGCAAG [Fam3.1 aminoacylation ribozyme variant] ?
Response: 1.38

Query: What do you have for AACUUUGCUAAUAGUCGCACG [Fam3.1 aminoacylation ribozyme variant] ?
Response: 2.49

Query: What do you have for CUACUUCGAACAAUCGUUCUG [Fam1A.1 aminoacylation ribozyme variant] ?
Response: 0.432

Query: What do you have for AAGUUUGGUAAUAGUCGCAAA [Fam3.1 aminoacylation ribozyme variant] ?
Response: 1.88

Query: What do you have for CUACUUAAAACACUCGGUCUG [Fam1A.1 aminoacylation ribozyme variant] ?
Response: 0.992

Query: What do you have for AUUCACCUAGGUAAUCGGAUG [Fam2.2 aminoacylation ribozyme variant] ?
Response: 0.61

Query: What do you have for CUACUCUUCAAGCAAUCGGUC [Fam1B.1 aminoacylation ribozyme variant] ?
Response: 0.859

Query: What do you have for AAGUAUGCUAAUCGUCGCAAG [Fam3.1 aminoacylation ribozyme variant] ?
Response: 1.81

Query: What do you have for CCACACUCCCAGCAAUCGGUC [Fam1B.1 aminoacylation ribozyme variant] ?
Response: 1.65

Query: What do you have for AUACUUCAAACAAUUGGUCUG [Fam1A.1 aminoacylation ribozyme variant] ?
Response: 1.19

Query: What do you have for CUACUUCAGACACUCGGUCUG [Fam1A.1 aminoacylation ribozyme variant] ?
Response: 1.2

Query: What do you have for AAGUUUGCUAACAGUCGCCAG [Fam3.1 aminoacylation ribozyme variant] ?
Response: 1.61

Query: What do you have for CCACACAUCUAGCAAUCGGUC [Fam1B.1 aminoacylation ribozyme variant] ?
Response: 0.894

Query: What do you have for CGACACUUCAACCAAUCGGUC [Fam1B.1 aminoacylation ribozyme variant] ?
Response: 1.38

Query: What do you have for AAUCACCUAGGUCAGCGGGUG [Fam2.2 aminoacylation ribozyme variant] ?
Response: 4.05
